Hello, the source for this data is patent US8906925B2, in case you need it.

Experimental Target: human recombinant serotonin (5-Hydroxytryptamine) 5-HT2C receptor (Homo sapiens, UniProt P28335)
Construct: expressed in transfected cells; host or cells: Chinese hamster ovary (CHO-K1) cells
Sequence (P28335 33-458): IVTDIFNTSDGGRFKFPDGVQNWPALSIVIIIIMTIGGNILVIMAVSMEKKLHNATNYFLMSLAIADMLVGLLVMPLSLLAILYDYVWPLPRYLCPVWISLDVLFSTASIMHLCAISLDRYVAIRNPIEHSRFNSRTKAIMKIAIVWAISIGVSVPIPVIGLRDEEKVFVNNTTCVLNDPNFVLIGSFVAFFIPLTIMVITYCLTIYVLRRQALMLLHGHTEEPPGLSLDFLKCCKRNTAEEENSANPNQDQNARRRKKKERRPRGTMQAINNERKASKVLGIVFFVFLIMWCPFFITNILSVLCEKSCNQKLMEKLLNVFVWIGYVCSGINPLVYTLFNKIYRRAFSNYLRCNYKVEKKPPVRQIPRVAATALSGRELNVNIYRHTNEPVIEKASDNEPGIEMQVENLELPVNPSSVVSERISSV
Experiment Notes: Serotonin 5-HT2C radioligand binding ([3H]Mesulergine)
Condition Context: compound at 1 μM; read-out: Inhibition of ligand binding, Serotonin 5-HT2C (percent inhibition of specific binding)
Result Type: inhibition at 1 µM (%)

* Cc1ccc(C(O)Cn2c3c(c4ccccc42)CN(C)CC3)cc1 (racemic) | 82
* C=C(Cn1c2c(c3cc(Cl)ccc31)CN(C)CC2)c1ccc(F)cc1 | 100
* C/C(=C/n1c2c(c3cc(Cl)ccc31)CN(C)CC2)c1ccccc1Cl | 98
* CCOC(=O)/C=C(/Cn1c2c(c3cc(C)ccc31)CN(C)CC2)c1ccccc1 | 104
